Data provenance is patent US6685617B1.

- tgt: α4β1 integrin (Jurkat T-cell adhesion to IL-1 stimulated endothelial cell monolayers) (Homo sapiens, UniProt P05556+P13612)
- Construct: a T-cell line, Jurkat, known to express the α4β1 integrin
- assay.text: Jurkat-endothelial cell adhesion assay (Jurkat EC)
- test.parameters: Jurkat cells on IL-1 stimulated human umbilical vein endothelial cells; read-out: JK/EC (Jurkat EC Assay IC50 value range)
pIC50: −log10 of the molar value.
Form field: pIC50 (one value per entry).

molecule | pIC50
COc1ccc(C(=O)N2CCCC[C@H]2C(=O)N[C@@H](Cc2ccc(NC(=O)c3c(Cl)cccc3Cl)cc2)C(=O)O)cc1OC [Example 180] | ≤ 6.00
O=C(Nc1ccc(C[C@H](NC(=O)[C@H]2CSCN2C(=O)OCc2ccccc2)C(=O)O)cc1)c1c(Cl)cccc1Cl (relative stereo) [Example 21] | ≥ 6.60
CC(=O)CCC(=O)N1CCC(C(=O)N[C@@H](Cc2ccc(NC(=O)c3c(Cl)cccc3Cl)cc2)C(=O)O)CC1 [Example 216] | ≤ 6.00

----------
- tgt: α4β1 integrin (Jurkat cell adhesion to immobilized CS-1 derived peptide CLHPGEILDVPST) (Homo sapiens, UniProt P05556+P13612)
- Construct: 100 μl of Jurkat cells (2.5×10^6 cells/ml) in DMEM plus BSA
- Sequence (P13612 34-1032): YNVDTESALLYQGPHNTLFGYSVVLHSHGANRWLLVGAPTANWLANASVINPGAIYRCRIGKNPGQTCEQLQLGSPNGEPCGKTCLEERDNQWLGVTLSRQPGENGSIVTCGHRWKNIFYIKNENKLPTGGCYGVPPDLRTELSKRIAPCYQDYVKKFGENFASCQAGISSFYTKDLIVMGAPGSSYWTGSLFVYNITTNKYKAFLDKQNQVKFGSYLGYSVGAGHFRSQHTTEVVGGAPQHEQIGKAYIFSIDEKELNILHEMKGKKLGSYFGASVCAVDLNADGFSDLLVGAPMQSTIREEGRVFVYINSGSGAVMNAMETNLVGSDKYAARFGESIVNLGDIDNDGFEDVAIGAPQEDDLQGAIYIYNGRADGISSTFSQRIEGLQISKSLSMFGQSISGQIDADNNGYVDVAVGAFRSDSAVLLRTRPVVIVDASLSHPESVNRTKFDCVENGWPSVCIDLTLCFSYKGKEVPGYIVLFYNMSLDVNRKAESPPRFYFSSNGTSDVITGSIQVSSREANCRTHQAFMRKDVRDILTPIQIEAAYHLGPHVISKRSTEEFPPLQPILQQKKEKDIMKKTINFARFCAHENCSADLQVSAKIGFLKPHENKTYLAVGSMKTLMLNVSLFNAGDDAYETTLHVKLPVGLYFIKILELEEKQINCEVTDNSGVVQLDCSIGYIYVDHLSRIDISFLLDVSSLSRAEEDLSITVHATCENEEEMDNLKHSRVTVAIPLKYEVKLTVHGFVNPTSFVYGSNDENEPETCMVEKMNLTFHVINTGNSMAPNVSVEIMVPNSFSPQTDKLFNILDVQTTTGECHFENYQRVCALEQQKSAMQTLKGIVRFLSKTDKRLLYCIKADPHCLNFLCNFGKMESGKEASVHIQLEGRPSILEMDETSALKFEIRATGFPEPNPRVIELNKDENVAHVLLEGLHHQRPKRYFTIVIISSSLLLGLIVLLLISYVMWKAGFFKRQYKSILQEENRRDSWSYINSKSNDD
- Sequence (P05556 21-798): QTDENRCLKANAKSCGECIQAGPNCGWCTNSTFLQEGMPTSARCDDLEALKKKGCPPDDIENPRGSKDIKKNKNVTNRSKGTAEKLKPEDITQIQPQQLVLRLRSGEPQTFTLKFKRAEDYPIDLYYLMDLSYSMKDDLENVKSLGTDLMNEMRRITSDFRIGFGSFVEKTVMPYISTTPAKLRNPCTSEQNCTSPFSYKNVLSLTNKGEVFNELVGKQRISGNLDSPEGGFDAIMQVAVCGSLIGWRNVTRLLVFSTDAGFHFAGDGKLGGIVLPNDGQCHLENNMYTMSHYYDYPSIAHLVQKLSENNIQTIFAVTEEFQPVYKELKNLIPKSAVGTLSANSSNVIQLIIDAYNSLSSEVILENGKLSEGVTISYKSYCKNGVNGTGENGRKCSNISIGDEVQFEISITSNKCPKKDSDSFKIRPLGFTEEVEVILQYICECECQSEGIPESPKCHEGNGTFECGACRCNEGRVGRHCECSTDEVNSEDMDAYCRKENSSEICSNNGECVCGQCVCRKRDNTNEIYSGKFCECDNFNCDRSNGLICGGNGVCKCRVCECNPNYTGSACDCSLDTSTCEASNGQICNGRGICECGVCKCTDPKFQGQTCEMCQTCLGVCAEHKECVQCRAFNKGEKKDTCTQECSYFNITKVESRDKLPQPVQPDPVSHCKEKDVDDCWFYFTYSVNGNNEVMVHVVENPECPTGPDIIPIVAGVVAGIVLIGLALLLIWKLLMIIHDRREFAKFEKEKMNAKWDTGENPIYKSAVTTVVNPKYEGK
- assay.text: Jurkat-CS-1 assay
- test.parameters: Jurkat cells on CS-1 peptide coated plates; read-out: JK/CS-1 (Jurkat CS-1 Assay IC50 value range)
pIC50: −log10 of the molar value.
outcome.measure: pIC50

compound | test.result
CCOC(=O)N1[C@@H](C(=O)N[C@@H](Cc2ccc(OCc3c(Cl)cccc3Cl)cc2)C(=O)O)CSC12CCN(C)CC2 (relative stereo) [Example 155] | ≤ 6.12
O=C(O)CCC(=O)N1CCCCC[C@H]1C(=O)N[C@@H](Cc1ccc(NC(=O)c2c(Cl)cccc2Cl)cc1)C(=O)O (relative stereo) [Example 157] | 6.12 to 7.30
O=C(O)c1cccc(C(=O)N2CCCC[C@H]2C(=O)N[C@@H](Cc2ccc(NC(=O)c3c(Cl)cccc3Cl)cc2)C(=O)O)c1 [Example 182] | 6.12 to 7.30
O=C(O)c1cccc(C(=O)N2CCC(C(=O)N[C@@H](Cc3ccc(NC(=O)c4c(Cl)cccc4Cl)cc3)C(=O)O)CC2)c1 [Example 220] | 6.12 to 7.30
COC(=O)[C@H](Cc1ccc(NC(=O)c2c(Cl)cccc2Cl)cc1)NC(=O)[C@H]1CSCN1C(=O)N1CCOCC1 [Example 56] | 6.12 to 7.30
O=C(Nc1ccc(C[C@H](NC(=O)[C@H]2CCCN2C(=O)C2CCCO2)C(=O)O)cc1)c1c(Cl)cccc1Cl (stereo partly drawn) [Example 260] | 6.12 to 7.30

----------
- tgt: α4β1 integrin (Jurkat T-cell adhesion to IL-1 stimulated endothelial cell monolayers) (Homo sapiens, UniProt P05556+P13612)
- Construct: a T-cell line, Jurkat, known to express the α4β1 integrin
- assay.text: Jurkat-endothelial cell adhesion assay (Jurkat EC)
- test.parameters: Jurkat cells on IL-1 stimulated human umbilical vein endothelial cells; read-out: JK/EC (Jurkat EC Assay IC50 value range)
pIC50: −log10 of the molar value. Structures can show the parent of a compound that is named as a salt.

compound | pIC50
COC(=O)[C@H](Cc1ccc(NC(=O)c2c(Cl)cccc2Cl)cc1)NC(=O)C1CCCCN1C(=O)CCC(=O)O (stereo partly shown) | ≤ 6.00
CC(c1ccccc1)N1C(C(=O)O)CC1C(=O)NC(Cc1ccc(NC(=O)c2c(Cl)cccc2Cl)cc1)C(=O)O (single isomer, unassigned) [Example 139] | ≤ 6.00
CC(C)(C)NC(=O)N1CSC[C@@H]1C(=O)N[C@@H](Cc1ccc(NC(=O)c2c(Cl)cccc2Cl)cc1)C(=O)O | ≥ 6.60
O=C(NO)[C@H](Cc1ccc(OCc2c(Cl)cccc2Cl)cc1)NC(=O)[C@H]1CSCN1C(=O)OCCN1CCOCC1 | ≤ 6.00
COC(=O)[C@H](Cc1ccc(NC(=O)c2c(Cl)cccc2Cl)cc1)NC(=O)[C@@H]1CSCN1C(C)=O | ≤ 6.00
O=C(Nc1ccc(C[C@H](NC(=O)[C@@H]2CCCN2C(=O)C2CCCC(C(=O)O)C2)C(=O)O)cc1)c1c(Cl)cccc1Cl (stereo partly shown) | ≤ 6.00
O=C(O)/C=C/C(=O)N1CCCC[C@@H]1C(=O)N[C@@H](Cc1ccc(NC(=O)c2c(Cl)cccc2Cl)cc1)C(=O)O | 6.00 to 6.60
O=C(O)c1cncc(C(=O)N2CSC[C@@H]2C(=O)N[C@@H](Cc2ccc(NC(=O)c3c(Cl)cccc3Cl)cc2)C(=O)O)c1 | 6.00 to 6.60
CC(C)(C)OC(=O)N1CSC[C@@H]1C(=O)N[C@@H](Cc1ccc(OCc2c(Cl)cccc2Cl)cc1)C(=O)O (relative stereo) | ≥ 6.60
CC(C)(C)OC(=O)N1CC[C@H]1C(=O)N[C@@H](Cc1ccc(NC(=O)c2c(Cl)cccc2Cl)cc1)C(=O)O | ≤ 6.00
COC(=O)[C@H](Cc1ccc(NC(=O)c2c(Cl)cccc2Cl)cc1)NC(=O)C1CCCCN1C(=O)/C=C\C(=O)O (stereo partly shown) | ≤ 6.00
CC1(C)SC(C)(C)N(C(=O)CCCC(=O)O)[C@@H]1C(=O)N[C@@H](Cc1ccc(NC(=O)c2c(Cl)cccc2Cl)cc1)C(=O)O (relative stereo) | ≤ 6.00
CCOC(=O)N1CSC(C)(C)[C@@H]1C(=O)N[C@@H](Cc1ccc(NC(=O)c2c(Cl)cccc2Cl)cc1)C(=O)OC (relative stereo) | ≤ 6.00
CN(CCc1ccccn1)C(=O)N1CSC[C@@H]1C(=O)N[C@@H](Cc1ccc(OCc2c(Cl)cccc2Cl)cc1)C(=O)O (relative stereo) | ≤ 6.00
COC(=O)[C@H](Cc1ccc(NC(=O)c2c(Cl)cccc2Cl)cc1)NC(=O)C1CCCCN1C(=O)CC(C)(C)CC(=O)O (stereo partly shown) | ≥ 6.60
COC(=O)[C@H](Cc1ccc(NC(=O)c2c(Cl)cccc2Cl)cc1)NC(=O)[C@@H]1CCN1 | ≤ 6.00
CCOC(=O)N1[C@@H](C(=O)N[C@@H](Cc2ccc(OCc3c(Cl)cccc3Cl)cc2)C(=O)O)CSC12CCCC2 (relative stereo) | ≤ 6.00
CC(C)(C)OC(=O)N1CSC[C@@H]1C(=O)N[C@@H](Cc1ccc(OCc2c(Cl)cccc2Cl)c(Cl)n1)C(=O)O | ≤ 6.00
COC(=O)[C@H](Cc1ccc(NC(=O)c2c(Cl)cccc2Cl)cc1)NC(=O)[C@@H]1CSC(C)(C)N1C(=O)OC(C)(C)C (relative stereo) | ≤ 6.00
O=C(O)CCC(=O)N1CCSCCC1C(=O)N[C@@H](Cc1ccc(NC(=O)c2c(Cl)cccc2Cl)cc1)C(=O)O (stereo partly shown) | ≤ 6.00
O=C(Nc1ccc(C[C@H](NC(=O)[C@@H]2CSCN2)C(=O)O)cc1)c1c(Cl)cccc1Cl [Example 71, Monohydrochloride Salt] | ≤ 6.00
O=C(O)c1cc(C(=O)N2CCCC[C@H]2C(=O)N[C@@H](Cc2ccc(NC(=O)c3c(Cl)cccc3Cl)cc2)C(=O)O)n[nH]1 | ≤ 6.00
CC(=O)CCC(=O)N1CCC[C@H]1C(=O)N[C@@H](Cc1ccc(NC(=O)c2c(Cl)cccc2Cl)cc1)C(=O)O | ≤ 6.00
O=C(O)CCC(=O)N1CSC[C@@H]1C(=O)N[C@@H](Cc1ccc(OCc2c(Cl)cccc2Cl)cc1)C(=O)O (relative stereo) | ≥ 6.60
O=C(Nc1ccc(C[C@H](NC(=O)[C@@H]2CSCN2C(=O)c2cc(O)c3ccccc3n2)C(=O)O)cc1)c1c(Cl)cccc1Cl | ≤ 6.00
